Biological target: Voltage-gated potassium channel subunit beta-2 (Rattus norvegicus)
Test: KvBeta enzyme negative modulators, primary screen, biochemical, NADPH fluorescence (AID 622);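 note: slope of raw intensity against log time taken from 70 to 1610 s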
Settings: recombinant KvBeta, 4-cyanobenzaldehyde reduction, at 10 µM, stronger effect = higher value
# label = TRUE if fluorescence slope >= -0.4 else FALSE

Compound | Class name
Cc1ccc(OCc2nnc(NC(=O)c3ccco3)s2)c(C)c1 | TRUE
CCCn1c(=O)[nH]c(=O)c2[nH]cnc21 | FALSE
CCCc1nc(N2CCOCC2)c(C#N)c2c1CCCC2 | FALSE

Data request: Does the compound "CCCc1cc(C(=O)Cc2ccc(F)cc2)c(O)cc1O" have recorded fluorescence slope that is -0.4 or more?
Data returned: FALSE

Data request: Does the compound CCOC(=O)C1=C(CSc2nc3c(cc2C#N)CCC3)OC(N)=C(C#N)C1c1ccccc1 (stereo not given) have recorded fluorescence slope that is -0.4 or more?
Data returned: FALSE

Data request: Does the compound "CN=C1c2cc3c(Br)c(OC)ccc3n2CCN1C" have recorded fluorescence slope that is -0.4 or more?
Data returned: FALSE

Data request: Does the compound "O=c1cc(NCc2ccccc2)nc2n1CCCS2" have recorded fluorescence slope that is -0.4 or more?
Data returned: FALSE

Data request: Does the compound "CN1CCN(CCCCOc2ccc(F)cc2)CC1" have recorded fluorescence slope that is -0.4 or more?
Data returned: FALSE

Data request: Does the compound "COc1ccc(-c2onc(C)c2-c2ccccc2)c(O)c1" have recorded fluorescence slope that is -0.4 or more?
Data returned: FALSE

Data request: Does the compound "O=C(Nc1ncn[nH]1)c1c(Cl)ccc(Cl)c1Cl" have recorded fluorescence slope that is -0.4 or more?
Data returned: TRUE

Data request: Does the compound COc1ccc(C(=O)C(CN2CCCC2)c2ccccc2)cc1 (stereo not given) have recorded fluorescence slope that is -0.4 or more?
Data returned: FALSE

Data request: Does the compound "c1ccc(OCc2nn3c(C4CCCCC4)nnc3s2)cc1" have recorded fluorescence slope that is -0.4 or more?
Data returned: FALSE

Data request: Does the compound CC(C)OC(=O)C(C#N)c1nc2ccccc2nc1N1CCCC1 (stereo not given) have recorded fluorescence slope that is -0.4 or more?
Data returned: FALSE

Data request: Does the compound CC(C)Oc1ccc(/C(O)=C2/C(=O)C(=O)N(CCN(C)C)C2c2ccco2)cc1 (stereo not given) have recorded fluorescence slope that is -0.4 or more?
Data returned: TRUE

Data request: Does the compound "CCn1cc(C(=O)NCc2ccccn2)c(=O)c2cc(F)c(N3CCN(C)CC3)cc21" have recorded fluorescence slope that is -0.4 or more?
Data returned: TRUE

Data request: Does the compound "Oc1c(C=NCc2ccncc2)sc2ccccc12" have recorded fluorescence slope that is -0.4 or more?
Data returned: FALSE

Data request: Does the compound O=C(O)CC(C(=O)N(c1ccccc1)c1ccccc1)N1CCOCC1 (stereo not given) have recorded fluorescence slope that is -0.4 or more?
Data returned: FALSE

---

Assay: DUSP6 inhibitors restoring Erk phosphorylation by chemical complementation, primary imaging in DUSP6-transfected HeLa (AID 609)
Conditions: HeLa MKP-3 transfected, phospho-Erk imaging KS statistic; measured here: nuclear pErk red intensity z-score; at 10 µM; stronger effect = higher value; cells stimulated with TPA for 15 min
# label = 1 if z-score >= 0.2 else -1

Data request: Does the compound "CCCc1nnc(NC(=O)c2c(O)c3c([nH]c2=O)CCCC3)s1" have recorded z-score that is 0.2 or more?
Data returned: -1

Data request: Does the compound "COCc1cc(C)nc(SCC(=O)Nc2ccc(C)c(C)c2)c1C#N" have recorded z-score that is 0.2 or more?
Data returned: 1

Data request: Does the compound "COC(=O)c1ccc(-c2sc3nc(N4CCOCC4)c4c(c3c2N)CC(C)(C)OC4)o1" have recorded z-score that is 0.2 or more?
Data returned: 1

Data request: Does the compound "CC(C)(C)C1=Nn2c(nnc2-c2ccccn2)SC1" have recorded z-score that is 0.2 or more?
Data returned: -1
